target: UniProtKB P00533; details: at 150 nM
PROPERTY NAME: inhibition (%)
Number in %, nothing else.

The reported inhibition of the molecule FC(F)(F)c1csc(NC(=S)Nc2ccc3ncnc(Nc4cccc(Cl)c4)c3c2)n1 was 56.4

Quick note, inhibition for S=C(NCc1ccccc1)Nc1ccc2ncnc(Nc3ccc(Oc4ccccc4)cc3)c2c1 landed at 21.9

Given item N=C(N)NS(=O)(=O)c1ccc(Nc2ncnc3ccc(NC(=S)NCc4ccccc4)cc23)cc1 , the value recorded as its inhibition is 6.7

Item: S=C(Nc1ccccc1)Nc1ccc2ncnc(Nc3cccc(Br)c3)c2c1 | inhibition: 86.5

The value of inhibition measured for the molecule S=C(NCc1ccccc1)Nc1ccc2ncnc(Nc3cccc(Br)c3)c2c1 turned out to be 86.1

Recorded inhibition (molecule CC(C)c1ccc(Nc2ncnc3ccc(NC(=S)NCc4ccccc4)cc23)cc1 ): 4.2

// field: inhibition; key: S=C(NCCN1CCOCC1)Nc1ccc2ncnc(Nc3cccc(Br)c3)c2c1 ; value = 91.8

Measured inhibition of CCc1cccc(Nc2ncnc3ccc(NC(=S)NCc4ccccc4)cc23)c1 : 41.7

Per the records, this molecule ( S=C(NCc1ccccc1)Nc1ccc2ncnc(Nc3cccnc3)c2c1 ) has inhibition equal to 38.5

Memo: Cc1cccc(Nc2ncnc3ccc(NC(=S)NCc4ccccc4)cc23)c1 , reported inhibition: 68.5

###

Provide the recorded GI50 at 48 h for the entries that follow.
experiment: in vitro; details: human, HUVEC
Description: Growth inhibition of HUVEC after 48 hrs by MTT assay
Record the value in µM, omitting the unit from your answer.

Quick note, GI50 at 48 h for Fc1ccc(NC(=S)Nc2ccc3ncnc(Nc4cccc(Br)c4)c3c2)cc1Cl landed at 14.8

S=C(Nc1cccc(Cl)c1)Nc1ccc2ncnc(Nc3cccc(Br)c3)c2c1 yielded GI50 at 48 h of 11.5

###

target: Epidermal growth factor receptor (Homo sapiens, UniProt P00533); assay: biochemical; type: cell-based
Sequence (P00533 whole entry): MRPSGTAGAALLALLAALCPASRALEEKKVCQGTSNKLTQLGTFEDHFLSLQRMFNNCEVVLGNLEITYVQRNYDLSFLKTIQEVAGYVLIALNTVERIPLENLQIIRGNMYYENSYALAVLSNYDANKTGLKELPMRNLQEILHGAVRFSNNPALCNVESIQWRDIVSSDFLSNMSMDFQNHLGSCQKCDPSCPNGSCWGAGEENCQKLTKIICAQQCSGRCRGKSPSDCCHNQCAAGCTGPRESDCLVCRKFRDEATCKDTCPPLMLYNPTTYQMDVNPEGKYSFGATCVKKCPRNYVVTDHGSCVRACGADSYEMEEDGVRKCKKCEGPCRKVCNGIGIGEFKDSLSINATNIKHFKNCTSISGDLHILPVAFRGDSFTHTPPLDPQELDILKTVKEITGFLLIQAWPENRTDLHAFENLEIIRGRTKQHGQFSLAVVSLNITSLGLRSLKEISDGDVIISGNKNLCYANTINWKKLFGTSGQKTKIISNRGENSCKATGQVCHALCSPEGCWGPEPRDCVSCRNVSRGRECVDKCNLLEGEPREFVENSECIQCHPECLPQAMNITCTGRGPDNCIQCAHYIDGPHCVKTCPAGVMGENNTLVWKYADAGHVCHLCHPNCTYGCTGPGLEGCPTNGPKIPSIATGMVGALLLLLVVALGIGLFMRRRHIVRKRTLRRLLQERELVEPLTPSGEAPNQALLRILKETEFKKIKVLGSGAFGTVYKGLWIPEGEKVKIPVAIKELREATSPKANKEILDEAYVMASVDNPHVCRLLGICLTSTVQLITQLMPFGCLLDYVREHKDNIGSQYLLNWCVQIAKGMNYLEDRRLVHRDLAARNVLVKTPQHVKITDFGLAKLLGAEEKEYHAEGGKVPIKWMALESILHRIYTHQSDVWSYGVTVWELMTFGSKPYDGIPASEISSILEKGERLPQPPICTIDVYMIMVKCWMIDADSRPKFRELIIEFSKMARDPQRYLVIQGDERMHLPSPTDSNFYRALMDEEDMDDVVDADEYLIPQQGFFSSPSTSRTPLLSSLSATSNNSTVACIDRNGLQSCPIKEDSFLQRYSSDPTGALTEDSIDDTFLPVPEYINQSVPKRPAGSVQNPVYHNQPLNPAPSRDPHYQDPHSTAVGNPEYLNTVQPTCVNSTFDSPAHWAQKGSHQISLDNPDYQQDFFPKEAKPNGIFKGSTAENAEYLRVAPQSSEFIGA
PROPERTY NAME: pIC50
Bear in mind: pIC50 is minus log10 of a mol/L concentration; give just that figure.

Sure, the documented pIC50 for O=S(=O)(Nc1nccs1)c1ccc(NC(=S)Nc2ccc3ncnc(Nc4cccc(Br)c4)c3c2)cc1 is 7.66

Sure, the documented pIC50 for S=C(Nc1ccc2ncnc(Nc3cccc(Br)c3)c2c1)Nc1ccccc1Cl is 7.80

The reported value for S=C(NCc1ccc(Cl)cc1)Nc1ccc2ncnc(Nc3cccc(Br)c3)c2c1 in terms of pIC50 is 7.55

Sample Fc1ccc(NC(=S)Nc2ccc3ncnc(Nc4cccc(Br)c4)c3c2)cc1Cl ; pIC50 observed: 7.60

So for S=C(Nc1cncc(Cl)c1)Nc1ccc2ncnc(Nc3cccc(Cl)c3)c2c1 , the logged pIC50 turned out to be 7.26

Field pIC50 (entry Cc1cccc(Nc2ncnc3ccc(NC(=S)NCc4ccccc4)cc23)c1 ) reads 7.43

According to the records, this compound S=C(Nc1ccc2ncnc(Nc3cccc(Br)c3)c2c1)Nc1ccc(Cl)cc1Cl displays pIC50 of 7.31

###

molecular target: MAP kinase-interacting serine/threonine-protein kinase 2 (Homo sapiens); assay: Inhibition of human full length N-terminal GST-tagged MNK2 expressed in baculovirus expression system
Sequence (Q9HBH9 whole entry): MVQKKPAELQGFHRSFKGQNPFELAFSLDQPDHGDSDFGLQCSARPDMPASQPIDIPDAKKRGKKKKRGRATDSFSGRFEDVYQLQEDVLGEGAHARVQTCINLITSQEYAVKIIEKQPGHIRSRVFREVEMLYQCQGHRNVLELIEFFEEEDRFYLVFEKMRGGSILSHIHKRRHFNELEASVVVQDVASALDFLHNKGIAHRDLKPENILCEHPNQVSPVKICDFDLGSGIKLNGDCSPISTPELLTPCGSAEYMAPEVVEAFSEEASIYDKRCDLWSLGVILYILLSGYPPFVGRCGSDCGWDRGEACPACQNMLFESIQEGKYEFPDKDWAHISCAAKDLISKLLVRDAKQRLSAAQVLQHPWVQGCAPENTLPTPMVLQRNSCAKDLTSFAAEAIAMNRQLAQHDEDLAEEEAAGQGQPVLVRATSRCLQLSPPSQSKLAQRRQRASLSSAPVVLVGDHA
PROPERTY NAME: IC50 (nM)
Lab book: enter the figure in nM, no units written.

Noted for S=C(Nc1cccc(Cl)c1)Nc1ccc2ncnc(Nc3cccc(Br)c3)c2c1 : its IC50 reads 2700

###

target: Epidermal growth factor receptor (Homo sapiens, UniProt P00533); assay: biochemical
PROPERTY NAME: IC50 (µM)
Response body: numeric value in µM, unit text excluded.

Recorded IC50 (molecule O=C(NCc1ccccc1)Nc1ccc2ncnc(Nc3cccc(Br)c3)c2c1 ): 0.0089

So, Fc1cc(F)cc(NC(=S)Nc2ccc3ncnc(Nc4cccc(Cl)c4)c3c2)c1 ? Its IC50 was 0.0601

Looking up FC(F)(F)c1cccc(NC(=S)Nc2ccc3ncnc(Nc4cccc(Br)c4)c3c2)c1 , I found its IC50 recorded as 0.0607

The value of IC50 measured for the molecule Oc1ccc(NC(=S)Nc2ccc3ncnc(Nc4cccc(Br)c4)c3c2)cc1 turned out to be 0.0089

Form: molecule = S=C(Nc1cccnc1)Nc1ccc2ncnc(Nc3cccc(Br)c3)c2c1 ; IC50 = 0.0102

Entry Cc1nnc(NC(=S)Nc2ccc3ncnc(Nc4cccc(Cl)c4)c3c2)s1 ; IC50 = 0.12

S=C(Nc1ccccc1)Nc1ccc2ncnc(Nc3cccc(Br)c3)c2c1 has a reported IC50 of 0.0158

Note to self: IC50 recorded for FC(F)(F)c1csc(NC(=S)Nc2ccc3ncnc(Nc4cccc(Cl)c4)c3c2)n1 was 0.137

Noted for S=C(NCCN1CCOCC1)Nc1ccc2ncnc(Nc3cccc(Br)c3)c2c1 : its IC50 reads 0.0107

Field IC50 (entry S=C(Nc1ccc(Br)cc1)Nc1ccc2ncnc(Nc3cccc(Br)c3)c2c1 ) reads 0.0354

What the record says about S=C(Nc1ccc(Cl)cc1)Nc1ccc2ncnc(Nc3cccc(Br)c3)c2c1 : IC50 is 0.0195

For this molecule ( FC(F)(F)c1nnc(NC(=S)Nc2ccc3ncnc(Nc4cccc(Cl)c4)c3c2)s1 ), measured IC50 is 0.13

Reported IC50 of O=C(Nc1ccc(Cl)cc1)Nc1ccc2ncnc(Nc3cccc(Br)c3)c2c1 : 0.0193

Source: ChEMBL document CHEMBL4007489
